- System: UO-31 renal
- measurement_protocol: NCI tumour cell line growth inhibition, 48 h; in the data active means GI50 below about 0.43 µM; inactive means the rest
Answer with one of the outcomes active, inactive

Challenge: Please indicate how the test categorized `c1ccc(CSc2nnc3c4c5c(sc4nc(-c4cccnc4)n23)CCCCCC5)cc1` .
Response given: inactive

Challenge: Please indicate how the test categorized `COc1cc2c(cc1OCCCCCN1CCN(c3cc(=O)oc4ccccc34)CC1)N=C[C@@H]1CCCN1C2=O` .
Response given: inactive

Challenge: Please indicate how the test categorized `COc1ccc(-c2c(C#N)c(N)nc3c2COc2ccc(F)cc2-3)cc1OC` .
Response given: inactive

Challenge: Please indicate how the test categorized `O=c1[nH]c2ccc(N=Cc3c(O)[nH]c4ccccc34)cc2[nH]1` .
Response given: inactive

Challenge: Please indicate how the test categorized `Cc1cc(Nc2ncc(F)c(N[C@H]3[C@@H](C(N)=O)[C@@H]4C=C[C@H]3C4)n2)ccc1N1CCN(C)CC1` .
Response given: active

Challenge: Please indicate how the test categorized `Cc1nc2ccccc2c(/C=C/c2ccc(Cl)cc2)c1C(=O)/C=C/c1ccc(F)cc1` .
Response given: inactive

Challenge: Please indicate how the test categorized `Oc1c(Cl)cc(Cl)c2ccc(Cn3cc(-c4cc(F)cc(F)c4)nn3)nc12` .
Response given: inactive

Challenge: Please indicate how the test categorized `Cc1cccc(NC2=C(Cl)C(=O)N(Cc3ccc(Cl)cc3)C2=O)c1` .
Response given: inactive

Challenge: Please indicate how the test categorized `COc1ccc2c(c1OC)CO[C@@H]2[C@H]1c2c(c(Br)c3c(c2OC)OCO3)CCN1C` .
Response given: inactive
